EXPERIMENTAL TARGET: Human immunodeficiency virus type 1 integrase (Human immunodeficiency virus 1, UniProt Q7ZJM1)
Sequence (Q7ZJM1 whole entry): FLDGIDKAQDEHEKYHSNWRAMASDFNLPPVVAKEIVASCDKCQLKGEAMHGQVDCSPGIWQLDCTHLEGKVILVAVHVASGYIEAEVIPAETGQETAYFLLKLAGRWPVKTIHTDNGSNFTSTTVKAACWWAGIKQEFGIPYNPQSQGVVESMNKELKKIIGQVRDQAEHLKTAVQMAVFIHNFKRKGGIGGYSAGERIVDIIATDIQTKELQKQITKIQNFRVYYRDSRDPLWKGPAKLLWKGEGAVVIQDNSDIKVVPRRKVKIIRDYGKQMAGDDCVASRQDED
This listing pairs compounds with measured pIC50.
Please treat pIC50 as minus the base-10 logarithm of the molar concentration.

O=C(c1cccc(-c2ccccc2)c1)c1cc(=O)n(O)c(=O)[nH]1 :: 5.15

Lab note: measured pIC50 of Cc1ccc(-c2ccc(C(=O)c3cc(=O)n(O)c(=O)[nH]3)cc2)cc1 was 5.00

Lab note: measured pIC50 of COC(=O)c1ccc(-c2ccc(C(=O)c3cc(=O)n(O)c(=O)[nH]3)cc2)cc1 was 5.17

Lab note: measured pIC50 of O=C(c1ccc(-c2ccc(Cl)c(F)c2)cc1)c1cc(=O)n(O)c(=O)[nH]1 was 6.43

Lab note: measured pIC50 of COC(=O)c1ccc(C(=O)c2cc(=O)n(O)c(=O)[nH]2)cc1 was 4.89

Provenance of the data: ChEMBL document CHEMBL4400534
